Recorded values, source ChEMBL document CHEMBL5724914.

Experiment: The drug is tested on Z-009 corresponding to pig gut metagenome with ENA study accession number: PRJEB37062 and ENA sample accession number: ERS12561809 for biotransformation under anaerobic condition. The drug concentrations were measured over 9 timepoints collected between 0 and 24 hours of incubation by liquid-chromatography-coupled mass spectrometry (LC–MS); further: call rule not given here
Conditions: 2 µM
experimental.readout: Bacterial Biotransformation

Worked cases, answers included:
CC(CN(C)C)CN1c2ccccc2CCc2ccccc21.O=C(O)/C=C\C(=O)O (stereo not drawn) [TRIMIPRAMINE MALEATE]    Compound NOT metabolized
CC(C)N(CCC(C(N)=O)(c1ccccc1)c1ccccn1)C(C)C.O=P(O)(O)O (stereo not drawn) [DISOPYRAMIDE PHOSPHATE]    Compound NOT metabolized
CC(CN1c2ccccc2Sc2ccccc21)N(C)C (stereo not drawn)    Compound NOT metabolized
COCCc1ccc(OCC(O)CNC(C)C)cc1.COCCc1ccc(OCC(O)CNC(C)C)cc1.O=C(O)C(O)C(O)C(=O)O (stereo not drawn) [METOPROLOL TARTRATE]    Compound NOT metabolized

Query: Retrieve Bacterial Biotransformation measured for CC(C)c1c(C(=O)Nc2ccccc2)c(-c2ccccc2)c(-c2ccc(F)cc2)n1CC[C@@H](O)C[C@@H](O)CC(=O)O and print it.
Result: Compound NOT metabolized

Query: Retrieve Bacterial Biotransformation measured for Fc1ccc([C@@H]2CCNC[C@H]2COc2ccc3c(c2)OCO3)cc1 and print it.
Result: Compound metabolized

Query: Retrieve Bacterial Biotransformation measured for N#Cc1ccc(C(c2ccc(C#N)cc2)n2cncn2)cc1 and print it.
Result: Compound NOT metabolized

Query: Retrieve Bacterial Biotransformation measured for Cc1ccc(S(=O)(=O)NC(=O)NN2CCCCCC2)cc1 [TOLAZAMIDE] and print it.
Result: Compound metabolized

----------
Assay: The drug is tested on Z-022 corresponding to mouse gut metagenome with ENA study accession number: PRJEB37062 and ENA sample accession number: ERS12561821 for biotransformation under anaerobic condition. The drug concentrations were measured over 9 timepoints collected between 0 and 24 hours of incubation by liquid-chromatography-coupled mass spectrometry (LC–MS)
Settings: 2 µM
experimental.readout: Bacterial Biotransformation

OCCN1CCN(CCCN2c3ccccc3Sc3ccc(C(F)(F)F)cc32)CC1    Compound metabolized
C=CCc1ccccc1OCC(O)CNC(C)C (stereo not drawn)    Compound metabolized
C=CCN1CC[C@]23c4c5ccc(O)c4O[C@H]2C(=O)CC[C@@]3(O)[C@H]1C5    Compound NOT metabolized
COc1ccccc1OCC(O)CN1CCN(CC(=O)Nc2c(C)cccc2C)CC1 (stereo not drawn)    Compound metabolized
CCOC(=O)[C@H](CCc1ccccc1)N[C@@H](C)C(=O)N1[C@H](C(=O)O)C[C@@H]2CCC[C@@H]21    Compound metabolized

Query: Retrieve Bacterial Biotransformation measured for CCOC(=O)[C@H](CCc1ccccc1)N[C@@H](C)C(=O)N1[C@H](C(=O)O)C[C@H]2CCCC[C@@H]21 and print it.
Result: Compound NOT metabolized

Query: Retrieve Bacterial Biotransformation measured for COc1c(C)c2c(c(O)c1C/C=C(\C)CCC(=O)OCCN1CCOCC1)C(=O)OC2 [MYCOPHENOLATE MOFETIL] and print it.
Result: Compound metabolized

Query: Retrieve Bacterial Biotransformation measured for CC(Oc1c(Cl)cccc1Cl)C1=NCCN1 (stereo not drawn) and print it.
Result: Compound NOT metabolized

----------
Conditions: human gut metagenome, 24 h, 2 µM
experimental.readout: Bacterial Biotransformation

Worked cases, answers included:
CC[C@H](C)C(=O)O[C@H]1C[C@@H](C)C=C2C=C[C@H](C)[C@H](CC[C@@H]3C[C@@H](O)CC(=O)O3)[C@H]21 [LOVASTATIN]    Compound NOT metabolized
O=c1n(CCCN2CCN(c3cccc(Cl)c3)CC2)nc2ccccn12 [TRAZODONE]    Compound NOT metabolized
COc1ccc(CCN(C)CCCC(C#N)(c2ccc(OC)c(OC)c2)C(C)C)cc1OC (centres undefined)    Compound metabolized
Cc1nc2n(c(=O)c1CCN1CCC(c3noc4cc(F)ccc34)CC1)CCCC2 [RISPERIDONE]    Compound metabolized

Query: Retrieve Bacterial Biotransformation measured for O=C(NCc1ccccc1)OCCO [BURAMATE] and print it.
Result: Compound NOT metabolized

Query: Retrieve Bacterial Biotransformation measured for COc1ccc2[nH]c([S+]([O-])Cc3ncc(C)c(OC)c3C)nc2n1 (centres undefined) [TENATOPRAZOLE] and print it.
Result: Compound metabolized

Query: Retrieve Bacterial Biotransformation measured for CC(=O)CC(c1ccccc1)c1c(O)c2ccccc2oc1=O (centres undefined) [WARFARIN] and print it.
Result: Compound metabolized

Query: Retrieve Bacterial Biotransformation measured for CN(C)CCC=C1c2ccccc2C=Cc2ccccc21 [CYCLOBENZAPRINE] and print it.
Result: Compound metabolized

Query: Retrieve Bacterial Biotransformation measured for CC(=O)O[C@]1(C(C)=O)CC[C@H]2[C@@H]3C=C(Cl)C4=CC(=O)[C@@H]5C[C@@H]5[C@]4(C)[C@H]3CC[C@@]21C [CYPROTERONE ACETATE] and print it.
Result: Compound metabolized

Query: Retrieve Bacterial Biotransformation measured for CC(C(=O)O)c1ccc2c(c1)Cc1cccnc1O2 (centres undefined) [PRANOPROFEN] and print it.
Result: Compound metabolized

Query: Retrieve Bacterial Biotransformation measured for COc1ccccc1N1CCN(CC(O)COc2cccc3ccccc23)CC1 (centres undefined) [NAFTOPIDIL] and print it.
Result: Compound NOT metabolized

Query: Retrieve Bacterial Biotransformation measured for Cc1cc2c(cc1S(N)(=O)=O)S(=O)(=O)CCC2 and print it.
Result: Compound NOT metabolized

Query: Retrieve Bacterial Biotransformation measured for C=CCc1ccccc1OCC(O)CNC(C)C (centres undefined) [ALPRENOLOL] and print it.
Result: Compound metabolized

Query: Retrieve Bacterial Biotransformation measured for COc1cc2c(c(OC)c1OC)-c1ccc(OC)c(=O)cc1[C@@H](NC(C)=O)CC2 [COLCHICINE] and print it.
Result: Compound NOT metabolized

Query: Retrieve Bacterial Biotransformation measured for CCN(CC)CCNC(C(=O)OCCC(C)C)c1ccccc1.Cl.Cl (centres undefined) and print it.
Result: Compound metabolized

Query: Retrieve Bacterial Biotransformation measured for CCCc1nc2c(C)cc(-c3nc4ccccc4n3C)cc2n1Cc1ccc(-c2ccccc2C(=O)O)cc1 and print it.
Result: Compound metabolized

Query: Retrieve Bacterial Biotransformation measured for CCCCC1=NC2(CCCC2)C(=O)N1Cc1ccc(-c2ccccc2-c2nnn[nH]2)cc1 [IRBESARTAN] and print it.
Result: Compound metabolized

Query: Retrieve Bacterial Biotransformation measured for CCCCC(=O)N(Cc1ccc(-c2ccccc2-c2nnn[nH]2)cc1)[C@H](C(=O)O)C(C)C and print it.
Result: Compound metabolized

Query: Retrieve Bacterial Biotransformation measured for Nc1nc2ccc(OC(F)(F)F)cc2s1 [RILUZOLE] and print it.
Result: Compound metabolized

----------
Experiment: The drug is tested on Z-024 corresponding to pig gut metagenome with ENA study accession number: PRJEB37062 and ENA sample accession number: ERS12561823 for biotransformation under anaerobic condition. The drug concentrations were measured over 9 timepoints collected between 0 and 24 hours of incubation by liquid-chromatography-coupled mass spectrometry (LC–MS)
Details: 2 µM
experimental.readout: Bacterial Biotransformation

Worked cases, answers included:
OC(Cn1cncn1)(Cn1cncn1)c1ccc(F)cc1F [FLUCONAZOLE]    Compound metabolized
CN1CCc2c(c3ccccc3n2Cc2ccccc2)C1.CN1CCc2c(c3ccccc3n2Cc2ccccc2)C1.O=S(=O)(O)c1cccc2c(S(=O)(=O)O)cccc12    Compound metabolized
O=C1NCC2(CCN(CCc3ccccc3)CC2)O1 [FENSPIRIDE]    Compound NOT metabolized
CCCc1nc(C(C)(C)O)c(C(=O)OCc2oc(=O)oc2C)n1Cc1ccc(-c2ccccc2-c2nnn[nH]2)cc1 [OLMESARTAN MEDOXOMIL]    Compound metabolized
CCc1nn(CCCN2CCN(c3cccc(Cl)c3)CC2)c(=O)n1CCOc1ccccc1 [NEFAZODONE]    Compound NOT metabolized
CCOC(=O)[C@H](CCc1ccccc1)N[C@@H](C)C(=O)N1[C@H](C(=O)O)C[C@@H]2CCC[C@@H]21    Compound metabolized

Query: Retrieve Bacterial Biotransformation measured for COc1cc2c(c(OC)c1OC)-c1ccc(OC)c(=O)cc1[C@@H](NC(C)=O)CC2 [COLCHICINE] and print it.
Result: Compound NOT metabolized

Query: Retrieve Bacterial Biotransformation measured for Fc1ccc([C@@H]2CCNC[C@H]2COc2ccc3c(c2)OCO3)cc1 [PAROXETINE] and print it.
Result: Compound metabolized

----------
Settings: human gut metagenome, 24 h, 2 µM
experimental.readout: Bacterial Biotransformation

CN1C(=O)CCS(=O)(=O)C1c1ccc(Cl)cc1 (stereo not drawn)    Compound NOT metabolized
COc1ccccc1OCC(O)CN1CCN(CC(=O)Nc2c(C)cccc2C)CC1 (stereo not drawn)    Compound NOT metabolized
CC(C)(C#N)c1cc(Cn2cncn2)cc(C(C)(C)C#N)c1    Compound NOT metabolized
COc1ccc2[nH]c([S+]([O-])Cc3ncc(C)c(OC)c3C)nc2n1 (stereo not drawn)    Compound NOT metabolized
COc1cc2nc(N3CCN(C(=O)c4ccco4)CC3)nc(N)c2cc1OC    Compound metabolized

Query: Retrieve Bacterial Biotransformation measured for Fc1ccc([C@@H]2CCNC[C@H]2COc2ccc3c(c2)OCO3)cc1 and print it.
Result: Compound metabolized

Query: Retrieve Bacterial Biotransformation measured for COC1=CC(=O)C[C@@H](C)[C@]12Oc1c(Cl)c(OC)cc(OC)c1C2=O and print it.
Result: Compound metabolized

Query: Retrieve Bacterial Biotransformation measured for Cc1ccc(S(=O)(=O)NC(=O)NN2CCCCCC2)cc1 [TOLAZAMIDE] and print it.
Result: Compound metabolized

Query: Retrieve Bacterial Biotransformation measured for COC(=O)[C@H]1[C@H]2C[C@@H]3c4[nH]c5cc(OC)ccc5c4CCN3C[C@H]2C[C@@H](OC(=O)c2cc(OC)c(OC)c(OC)c2)[C@@H]1OC and print it.
Result: Compound NOT metabolized

Query: Retrieve Bacterial Biotransformation measured for CC(C)c1c(C(=O)Nc2ccccc2)c(-c2ccccc2)c(-c2ccc(F)cc2)n1CC[C@@H](O)C[C@@H](O)CC(=O)O and print it.
Result: Compound metabolized

Query: Retrieve Bacterial Biotransformation measured for NC12CC3CC(CC(C3)C1)C2 and print it.
Result: Compound NOT metabolized

Query: Retrieve Bacterial Biotransformation measured for CCN(CC)CC#CCOC(=O)C(O)(c1ccccc1)C1CCCCC1.Cl (stereo not drawn) [OXYBUTYNIN CHLORIDE] and print it.
Result: Compound metabolized
